// provenance: paper PMC4643876

What follows is a record of pKi for Plasmepsin V (PmV) (Plasmodium falciparum).
Scale note: pKi = -log10(concentration in M).

Below, 2 compounds whose answers are already recorded.
* CC(C)C[C@H](NC(=O)[C@@H](N)Cc1c[nH]c2ccccc12)C(=O)N[C@@H](CC(C)C)[C@@H](O)CN[C@@H](C)C(=O)N[C@@H](CCC(N)=O)C(=O)N[C@@H](C)C(N)=O [Compound 19a] | 5.56
* CC(C)C[C@H](NC(=O)[C@H](C)NC(=O)[C@@H](N)CCCNC(=N)N)[C@@H](O)CN[C@@H](Cc1ccc(O)cc1)C(=O)N[C@@H](CCC(=O)O)C(=O)N[C@@H](C)C(N)=O [Compound 11a] | 8.48

QUERY: Can you look up the measured pKi of Cc1cccc(C)c1OCC(=O)N[C@@H](Cc1ccccc1)[C@@H](O)C[C@H](Cc1ccccc1)NC(=O)[C@H](C(C)C)N1CCCNC1=O [Lopinavir, reference compound] for me?
RESULT: 4.96

QUERY: For CC[C@H](C)[C@H](NC(=O)[C@@H](N)CCCNC(=N)N)C(=O)N[C@@H](CC(C)C)C(O)CN[C@@H](C)C(=O)N[C@@H](CCC(=O)O)C(=O)N[C@@H](C)C(N)=O (mixture of isomers) [Compound 5] then?
RESULT: 9.46

QUERY: For CC(C)C[C@H](NC(=O)[C@@H](N)Cc1c[nH]c2ccccc12)C(=O)N[C@@H](CC(C)C)[C@@H](O)CN[C@@H](C)C(=O)N[C@@H](CCC(=O)O)C(=O)N[C@@H](C)C(N)=O [Compound 15a] then?
RESULT: 5.86

---

# TARGET OR TEST SYSTEM: Plasmepsin V (PmV) (Plasmodium falciparum, UniProt Q8I6Z5)
# Construct: PmV was purified directly from parasites; made in house
# Sequence (Q8I6Z5 whole entry): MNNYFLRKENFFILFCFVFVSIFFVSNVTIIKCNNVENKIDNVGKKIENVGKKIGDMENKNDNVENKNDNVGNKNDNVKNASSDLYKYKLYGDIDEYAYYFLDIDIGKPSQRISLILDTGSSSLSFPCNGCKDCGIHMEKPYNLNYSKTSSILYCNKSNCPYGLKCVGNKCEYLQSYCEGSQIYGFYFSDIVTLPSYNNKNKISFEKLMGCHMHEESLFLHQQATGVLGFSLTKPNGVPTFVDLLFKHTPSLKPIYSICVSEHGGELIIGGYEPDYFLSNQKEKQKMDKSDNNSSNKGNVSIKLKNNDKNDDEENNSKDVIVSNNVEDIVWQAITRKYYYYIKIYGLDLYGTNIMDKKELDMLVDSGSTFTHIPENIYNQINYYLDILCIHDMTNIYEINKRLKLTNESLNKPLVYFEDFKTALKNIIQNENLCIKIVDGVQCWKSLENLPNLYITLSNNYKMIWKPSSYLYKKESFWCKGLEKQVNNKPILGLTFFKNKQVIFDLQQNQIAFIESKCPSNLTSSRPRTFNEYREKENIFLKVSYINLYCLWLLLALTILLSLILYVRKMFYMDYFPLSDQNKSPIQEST
# ASSAY NOTES: PmV inhibition, fluorimetric PExEl cleavage assay
# Assay type: biochemical
# REPORTED CONDITIONS: 3 μM HRPII-PExEl substrate; averages of not less than three inhibition curves; read-out: IC50
// pIC50 lookup, one value per entry
Scale note: pIC50 = -log10(concentration in M).

- CC(=O)N[C@@H](CCCNC(=N)N)C(=O)N[C@@H](CC(C)C)C(=O)N[C@@H](CC(C)C)C(O)CN[C@@H](C)C(=O)N[C@@H](CCC(N)=O)C(=O)N[C@@H](C)C(N)=O (mixture of isomers): 6.93

Lab note: next compound to report on.
QUERY: Record CC(C)C[C@H](NC(=O)[C@@H](N)CCCNC(=N)N)C(=O)N[C@@H](CC(C)C)[C@@H](O)CN[C@@H](C)C(=O)N[C@@H](CCC(N)=O)C(=O)O [Compound 24a] : what is its pIC50 with Plasmepsin V (PmV) (Plasmodium falciparum, UniProt Q8I6Z5)?
RESULT: 7.78

---

# REPORTED CONDITIONS: pH 7.4
MEASUREMENT KIND: logD
Lab note: jot down the number only; don't add units.

• CC(C)C[C@H](NC(=O)[C@@H](N)CCCCN)C(=O)N[C@@H](CC(C)C)C(O)CN[C@@H](C)C(=O)N[C@@H](CCC(=O)O)C(N)=O (mixture of isomers) = -5.99

QUERY: Can you look up the measured logD of CC(C)C[C@H](NC(=O)[C@@H](N)CCCNC(=N)N)C(=O)N[C@@H](CC(C)C)C(O)CN[C@@H](C)C(=O)N[C@@H](CCC(=O)O)C(=O)N[C@@H](C)C(N)=O (mixture of isomers) for me?
RESULT: -4.28

---

// IC50 lookup, one value per entry
# TARGET OR TEST SYSTEM: Plasmepsin V (PmV) (Plasmodium falciparum)
# Construct: PmV was purified directly from parasites; made in house
# ASSAY NOTES: PmV inhibition, fluorimetric PExEl cleavage assay
# Assay type: biochemical
# REPORTED CONDITIONS: 3 μM HRPII-PExEl substrate; averages of not less than three inhibition curves; read-out: IC50
Please give the number followed by its unit.

Below, 2 molecules whose answers are already recorded.
* CC(C)C[C@H](NC(=O)[C@H](CO)NC(=O)[C@@H](N)CCCNC(=N)N)C(O)CN[C@@H](Cc1ccc(O)cc1)C(=O)N[C@@H](CCC(=O)O)C(=O)N[C@@H](C)C(N)=O (mixture of isomers) [Compound 12] | 23.1 nM
* CC(C)C[C@H](NC(=O)[C@@H](N)CCCNC(=N)N)C(=O)N[C@@H](CC(C)C)[C@@H](O)CN[C@@H](C)C(=O)N[C@@H](CCC(N)=O)C(=O)N[C@@H](C)C(N)=O [Compound 8a] | 1.55 nM

QUERY: Can you look up the measured IC50 of CC(C)C[C@H](NC(=O)[C@@H](N)CCCNC(=N)N)C(=O)N[C@@H](CC(C)C)[C@@H](O)CN[C@@H](Cc1ccc(O)cc1)C(=O)NCC(=O)O [Compound 27a] for me?
RESULT: 3.47 nM

QUERY: For CC(C)C[C@H](NC(=O)[C@@H](N)CCC(N)=O)C(=O)N[C@@H](CC(C)C)[C@@H](O)CN[C@@H](C)C(=O)N[C@@H](CCC(=O)O)C(=O)N[C@@H](C)C(=O)O [Compound 17a] then?
RESULT: 4390 nM

QUERY: For CC(C)C[C@H](NC(=O)[C@@H](N)CCCNC(=N)N)C(=O)N[C@@H](CC(C)C)C(O)CN[C@@H](C)C(=O)NCC(=O)O (mixture of isomers) [Compound 25] then?
RESULT: 15 nM

---

# TARGET OR TEST SYSTEM: Plasmepsin V (PmV) (Plasmodium falciparum, UniProt Q8I6Z5)
# Construct: PmV was purified directly from parasites; made in house
# ASSAY NOTES: PmV inhibition, fluorimetric PExEl cleavage assay
# Format: biochemical
# REPORTED CONDITIONS: Activity; read-out: IC50
MEASUREMENT KIND: pIC50
Scale note: pIC50 = -log10(concentration in M).

- CC(C)C[C@H](NC(=O)[C@@H](N)CCCCN)C(=O)N[C@@H](CC(C)C)[C@@H](O)CN[C@@H](C)C(=O)N[C@@H](CCC(=O)O)C(N)=O: 5.09

QUERY: Record CC(C)C[C@H](NC(=O)[C@@H](N)CCCNC(=N)N)C(=O)N[C@@H](CC(C)C)C(O)CN[C@@H](C)C(=O)N[C@@H](CCC(=O)O)C(=O)N[C@@H](C)C(N)=O (stereo partly drawn) : what is its pIC50 with Plasmepsin V (PmV) (Plasmodium falciparum, UniProt Q8I6Z5)?
RESULT: 9.43

QUERY: For "CCCCCCCC(=O)N[C@@H](CCCNC(=N)N)C(=O)N[C@@H](CC(C)C)C(=O)N[C@@H](CC(C)C)[C@H](O)CN[C@@H](Cc1ccc(O)cc1)C(=O)N[C@@H](CCC(=O)O)C(=O)N[C@@H](C)C(N)=O" then?
RESULT: 8.80

---

// pIC50 lookup, one value per entry
# TARGET OR TEST SYSTEM: Plasmepsin V (PmV) (Plasmodium falciparum)
# Construct: PmV was purified directly from parasites; made in house
# ASSAY NOTES: PmV inhibition, fluorimetric PExEl cleavage assay
# Format: biochemical
# REPORTED CONDITIONS: 3 μM HRPII-PExEl substrate; averages of not less than three inhibition curves; read-out: IC50
Scale note: pIC50 = -log10(concentration in M).

Below, 2 compounds whose answers are already recorded.
- CC(C)C[C@H](NC(=O)[C@@H](N)CCCNC(=N)N)C(=O)N[C@@H](CC(C)C)[C@@H](O)CN[C@@H](Cc1ccc(O)cc1)C(=O)N[C@@H](CCC(=O)O)C(N)=O: 8.74
- CCCCCCCC(=O)N[C@@H](CCCNC(=N)N)C(=O)N[C@@H](CC(C)C)C(=O)N[C@@H](CC(C)C)[C@@H](O)CN[C@@H](Cc1ccc(O)cc1)C(=O)N[C@@H](CCC(=O)O)C(=O)N[C@@H](C)C(N)=O [Compound 37a]: 10.64

QUERY: Record CC[C@H](C)[C@H](NC(=O)[C@@H](N)CCCNC(=N)N)C(=O)N[C@@H](CC(C)C)C(O)CN[C@@H](C)C(=O)N[C@@H](CCC(=O)O)C(=O)N[C@@H](C)C(=O)O (mixture of isomers) : what is its pIC50 with Plasmepsin V (PmV) (Plasmodium falciparum)?
RESULT: 8.67

QUERY: For CC(C)C[C@H](NC(=O)[C@@H](N)CCCNC(=N)N)C(=O)N[C@@H](CC(C)C)C(O)CN[C@@H](C)C(=O)N[C@@H](CCC(=O)O)C(=O)N[C@@H](C)C(=O)O (mixture of isomers) then?
RESULT: 8.88

QUERY: For "CC(C)C[C@H](NC(=O)[C@@H](N)CCCNC(=N)N)C(=O)N[C@@H](CC(C)C)[C@H](O)CN[C@@H](Cc1ccc(O)cc1)C(=O)N[C@@H](CCC(=O)O)C(N)=O" then?
RESULT: 7.49
